# Tested on: PCSK9 mRNA
# test-details: PCSK9 mRNA levels in C57BL/6 mice
# Assay type: in vivo, mouse
# stated-conditions: 50 mg/kg/week, 6 weeks, compared to PBS control
Oligonucleotides are written 5' to 3', each unit as a sugar letter and its base; * is a phosphorothioate linkage, no mark a phosphodiester; rarer units and linkages stand in square brackets, end groups in braces. Plain capitals give the bases only. e = 2'-O-(2-methoxyethyl) (MOE); [5mC] = 5-methylcytosine; d = 2'-deoxy (DNA)
Provide the recorded Percent inhibition PCSK9 mRNA levels for the entries that follow.
Expressed in %, but write only the number.

Data request: Param readout= Percent inhibition PCSK9 mRNA levels; system= PCSK9 mRNA; entry= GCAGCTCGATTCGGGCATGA (antisense eG*e[5mC]*eA*eG*e[5mC]*dT*d[5mC]*dG*dA*dT*dT*d[5mC]*dG*dG*dG*e[5mC]*eA*eT*eG*eA) [ISIS 447118] ; returns value.
Data returned: 45

Data request: Param readout= Percent inhibition PCSK9 mRNA levels; system= PCSK9 mRNA; entry= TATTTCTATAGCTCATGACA (antisense eT*eA*eT*eT*eT*d[5mC]*dT*dA*dT*dA*dG*d[5mC]*dT*d[5mC]*dA*eT*eG*eA*e[5mC]*eA) [ISIS 447144] ; returns value.
Data returned: 19

Data request: Param readout= Percent inhibition PCSK9 mRNA levels; system= PCSK9 mRNA; entry= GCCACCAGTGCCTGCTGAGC (antisense eG*e[5mC]*e[5mC]*eA*e[5mC]*d[5mC]*dA*dG*dT*dG*d[5mC]*d[5mC]*dT*dG*d[5mC]*eT*eG*eA*eG*e[5mC]) [ISIS 447143] ; returns value.
Data returned: 65

Data request: Param readout= Percent inhibition PCSK9 mRNA levels; system= PCSK9 mRNA; entry= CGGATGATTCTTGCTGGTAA (antisense e[5mC]*eG*eG*eA*eT*dG*dA*dT*dT*d[5mC]*dT*dT*dG*d[5mC]*dT*eG*eG*eT*eA*eA) [ISIS 447114] ; returns value.
Data returned: 24

---

Provide the recorded glucose levels for the entries that follow.
# test-details: Plasma glucose in C57BL/6 mice (glucose oxidase assay)
# Assay type: in vivo, mouse
# stated-conditions: Week 3, 50 mg/kg/week
Oligonucleotides are written 5' to 3', each unit as a sugar letter and its base; * is a phosphorothioate linkage, no mark a phosphodiester; rarer units and linkages stand in square brackets, end groups in braces. Plain capitals give the bases only. e = 2'-O-(2-methoxyethyl) (MOE); [5mC] = 5-methylcytosine; d = 2'-deoxy (DNA)
Expressed in mg/dL, but write only the number.

Data request: Entry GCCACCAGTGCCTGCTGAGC (antisense eG*e[5mC]*e[5mC]*eA*e[5mC]*d[5mC]*dA*dG*dT*dG*d[5mC]*d[5mC]*dT*dG*d[5mC]*eT*eG*eA*eG*e[5mC]) [ISIS 447143] : reported glucose levels = ?
Data returned: 231

Data request: Entry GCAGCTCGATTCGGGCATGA (antisense eG*e[5mC]*eA*eG*e[5mC]*dT*d[5mC]*dG*dA*dT*dT*d[5mC]*dG*dG*dG*e[5mC]*eA*eT*eG*eA) [ISIS 447118] : reported glucose levels = ?
Data returned: 271

Data request: Entry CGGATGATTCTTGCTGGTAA (antisense e[5mC]*eG*eG*eA*eT*dG*dA*dT*dT*d[5mC]*dT*dT*dG*d[5mC]*dT*eG*eG*eT*eA*eA) [ISIS 447114] : reported glucose levels = ?
Data returned: 229

Data request: Entry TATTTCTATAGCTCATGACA (antisense eT*eA*eT*eT*eT*d[5mC]*dT*dA*dT*dA*dG*d[5mC]*dT*d[5mC]*dA*eT*eG*eA*e[5mC]*eA) [ISIS 447144] : reported glucose levels = ?
Data returned: 239
